# test: Pharmacokinetics after intravenous administration in rats
# cond: in vivo; Rat, IV Bolus, 1 mg/kg; kel and dependent parameters estimated using two time points
experimental.readout: clearance (mL/min/kg)

{"columns": ["structure.as.smiles", "unit.name", "endpoint.result"],
 "data": [
  ["CO[C@@H]1[C@H](OC(=O)N2CC(CCN3CCOCC3)C2)CC[C@]2(CO2)[C@H]1[C@@]1(C)O[C@@H]1CC=C(C)C", "mL/min/kg", 252]
]}

###

# test: Toxicology study in the rat, s.c. Q3D for 28 days
# Assay type: in vivo, Sprague Dawley rats
# cond: female, Sprague Dawley, rat, in vivo, sc, 2 mg/kg, Day 1, female rats, NOAEL 2 mg/kg
experimental.readout: Cmax (ng/mL)

{"columns": ["compound", "experimental.readout", "endpoint.result"],
 "data": [
  ["CO[C@@H]1[C@H](OC(=O)/C=C/c2ccc(OCCN(C)C)cc2)CC[C@]2(CO2)[C@H]1[C@@]1(C)O[C@@H]1CC=C(C)C [beloranib, reference compound]", "Cmax", 28.5]
]}

###

# test: pKa (physicochemical properties)

{"columns": ["compound", "pKa"],
 "data": [
  ["CO[C@@H]1[C@H](OC(=O)/C=C/c2ccc(OCCN(C)C)cc2)CC[C@]2(CO2)[C@H]1[C@@]1(C)O[C@@H]1CC=C(C)C [beloranib, reference compound]", 9.4],
  ["CO[C@@H]1[C@H](OC(=O)N2CC(CCN3CCOCC3)C2)CC[C@]2(CO2)[C@H]1[C@@]1(C)O[C@@H]1CC=C(C)C", 7.17]
]}

###

# test: Protein binding in mouse plasma (dialysis)
# Type: in vitro ADME
# cond: 60 nM, read-out: % Bound (Mean) (converted)
experimental.readout: fraction unbound at 60 nM

{"columns": ["molecule", "endpoint.result"],
 "data": [
  ["CO[C@@H]1[C@H](OC(=O)/C=C/c2ccc(OCCN(C)C)cc2)CC[C@]2(CO2)[C@H]1[C@@]1(C)O[C@@H]1CC=C(C)C [beloranib, reference compound]", 0.0181]
]}

###

# test: Protein binding in human plasma (dialysis)
# Format: in vitro ADME
# cond: Human Plasma, 120 nM; read-out: % Bound (Mean) (converted)
experimental.readout: fraction unbound at 120 nM

{"columns": ["compound", "experimental.readout", "endpoint.result"],
 "data": [
  ["CO[C@@H]1[C@H](OC(=O)/C=C/c2ccc(OCCN(C)C)cc2)CC[C@]2(CO2)[C@H]1[C@@]1(C)O[C@@H]1CC=C(C)C [beloranib, reference compound]", "fraction unbound at 120 nM", 0.0544]
]}

###

# test: Protein binding in dog plasma (dialysis)
# Type: in vitro ADME
# cond: Dog Plasma, intended 50 nM, actual 32.0 nM; read-out: % Bound (converted)
experimental.readout: fraction unbound at 4 h, 50 nM

{"columns": ["structure.as.smiles", "experimental.readout", "endpoint.result"],
 "data": [
  ["CO[C@@H]1[C@H](OC(=O)N2CC(CCN3CCOCC3)C2)CC[C@]2(CO2)[C@H]1[C@@]1(C)O[C@@H]1CC=C(C)C", "fraction unbound at 4 h, 50 nM", 0.326]
]}

###

# test: Protein binding in dog plasma (dialysis)
# Type: in vitro ADME
# cond: Dog Plasma, 480 nM; read-out: % Bound (Mean) (converted)

{"columns": ["compound", "fraction unbound at 480 nM"],
 "data": [
  ["CO[C@@H]1[C@H](OC(=O)/C=C/c2ccc(OCCN(C)C)cc2)CC[C@]2(CO2)[C@H]1[C@@]1(C)O[C@@H]1CC=C(C)C [beloranib, reference compound]", 0.045]
]}

###

# test: Pharmacokinetics after subcutaneous administration in dogs
# Format: in vivo
# cond: beagle, plasma; Dog, SC, 0.6 mg/kg

{"columns": ["compound", "unit.name", "AUC(0-t)"],
 "data": [
  ["CO[C@@H]1[C@H](OC(=O)/C=C/c2ccc(OCCN(C)C)cc2)CC[C@]2(CO2)[C@H]1[C@@]1(C)O[C@@H]1CC=C(C)C [beloranib, reference compound]", "ng·h/mL", 182]
]}

###

# test: Pharmacokinetics after intravenous infusion in humans
# Assay type: in vivo
# cond: in vivo; Human, 30-minute IV Infusion, 2.0 mg (0.9 mg/m^2); read-out: Vdss

{"columns": ["compound", "Vd"],
 "data": [
  ["CO[C@@H]1[C@H](OC(=O)/C=C/c2ccc(OCCN(C)C)cc2)CC[C@]2(CO2)[C@H]1[C@@]1(C)O[C@@H]1CC=C(C)C [beloranib, reference compound]", "25.4 L/kg"]
]}

###

# test: Pharmacokinetics after subcutaneous administration in rats
# Type: in vivo
# cond: plasma; Rat, SC, 6 mg/kg
Recorded Cmax, one value per entry.

{"columns": ["molecule", "Cmax, ng/mL"],
 "data": [
  ["CO[C@@H]1[C@H](OC(=O)N2CC(CCN3CCOCC3)C2)CC[C@]2(CO2)[C@H]1[C@@]1(C)O[C@@H]1CC=C(C)C", 323],
  ["CO[C@@H]1[C@H](OC(=O)/C=C/c2ccc(OCCN(C)C)cc2)CC[C@]2(CO2)[C@H]1[C@@]1(C)O[C@@H]1CC=C(C)C [beloranib, reference compound]", 270]
]}

###

# test: Protein binding in rat plasma (dialysis)
# Assay type: in vitro ADME
# cond: Rat Plasma, 1000 nM; read-out: % Bound (Mean) (converted)

{"columns": ["compound", "fraction unbound at 1000 nM"],
 "data": [
  ["CO[C@@H]1[C@H](OC(=O)/C=C/c2ccc(OCCN(C)C)cc2)CC[C@]2(CO2)[C@H]1[C@@]1(C)O[C@@H]1CC=C(C)C [beloranib, reference compound]", 0.0434]
]}

###

# test: Pharmacokinetics after subcutaneous administration in dogs
# Assay type: in vivo
# cond: plasma; Dog, SC, 1 mg/kg

{"columns": ["structure.as.smiles", "unit.name", "half-life"],
 "data": [
  ["CO[C@@H]1[C@H](OC(=O)N2CC(CCN3CCOCC3)C2)CC[C@]2(CO2)[C@H]1[C@@]1(C)O[C@@H]1CC=C(C)C", "min", 62.4]
]}

###

# test: Pharmacokinetics after subcutaneous administration in dogs
# Assay type: in vivo
# cond: plasma; Dog, SC, 1 mg/kg
# Protocol: Animal experiments were performed in accordance with the Guide for the Care and Use of Laboratory Animals as adopted and promulgated by the U.S. National Institutes of Health or local equivalent and were approved by the Institution's Animal Care and Use Committee or local equivalent. […]
experimental.readout: AUC(0-t)

{"columns": ["structure.as.smiles", "experimental.readout", "endpoint.result"],
 "data": [
  ["CO[C@@H]1[C@H](OC(=O)N2CC(CCN3CCOCC3)C2)CC[C@]2(CO2)[C@H]1[C@@]1(C)O[C@@H]1CC=C(C)C", "AUC(0-t)", "348 ng·h/mL"]
]}

###

# test: Protein binding in dog plasma (dialysis)
# Type: in vitro ADME
# cond: Dog Plasma, intended 500 nM, actual 320 nM; read-out: % Bound (converted)

{"columns": ["structure.as.smiles", "fraction unbound at 4 h, 500 nM"],
 "data": [
  ["CO[C@@H]1[C@H](OC(=O)N2CC(CCN3CCOCC3)C2)CC[C@]2(CO2)[C@H]1[C@@]1(C)O[C@@H]1CC=C(C)C", 0.457]
]}

###

# test: Protein binding in rat plasma (dialysis)
# Format: in vitro ADME
# cond: Rat Plasma, 60 nM; read-out: % Bound (Mean) (converted)

{"columns": ["compound", "fraction unbound at 60 nM"],
 "data": [
  ["CO[C@@H]1[C@H](OC(=O)/C=C/c2ccc(OCCN(C)C)cc2)CC[C@]2(CO2)[C@H]1[C@@]1(C)O[C@@H]1CC=C(C)C [beloranib, reference compound]", 0.0285]
]}

###

# Test system: plasma proteins
# test: Protein binding in dog plasma (dialysis)
# Assay type: in vitro ADME
# cond: plasma; dog, summary over concentrations; read-out: bound to plasma proteins

{"columns": ["compound", "fraction unbound at 4 h"],
 "data": [
  ["CO[C@@H]1[C@H](OC(=O)N2CC(CCN3CCOCC3)C2)CC[C@]2(CO2)[C@H]1[C@@]1(C)O[C@@H]1CC=C(C)C [Compound A]", "0.3 to 0.6"]
]}

###

# test: Protein binding in mouse plasma (dialysis)
# Format: in vitro ADME
# cond: intended 10 nM, actual 11.1 nM, read-out: % Bound (converted)

{"columns": ["structure.as.smiles", "fraction unbound at 4 h, 10 nM"],
 "data": [
  ["CO[C@@H]1[C@H](OC(=O)N2CC(CCN3CCOCC3)C2)CC[C@]2(CO2)[C@H]1[C@@]1(C)O[C@@H]1CC=C(C)C", 0.293]
]}

###

# test: Toxicology study in the rat, s.c. Q3D for 28 days
# Format: in vivo, Sprague Dawley rats
# cond: male, Sprague Dawley, rat, in vivo, sc, 6 mg/kg, Day 28, male rats, NOAEL 6 mg/kg

{"columns": ["structure.as.smiles", "unit.name", "Cmax"],
 "data": [
  ["CO[C@@H]1[C@H](OC(=O)N2CC(CCN3CCOCC3)C2)CC[C@]2(CO2)[C@H]1[C@@]1(C)O[C@@H]1CC=C(C)C", "ng/mL", 426]
]}

Each recorded value in this set is attributed to patent US20200030278A1.
